Hey, just so you know, these numbers are from paper PMC4072508.

- Measured Target: T1, Bfl-1, Q16548
- T1 chain: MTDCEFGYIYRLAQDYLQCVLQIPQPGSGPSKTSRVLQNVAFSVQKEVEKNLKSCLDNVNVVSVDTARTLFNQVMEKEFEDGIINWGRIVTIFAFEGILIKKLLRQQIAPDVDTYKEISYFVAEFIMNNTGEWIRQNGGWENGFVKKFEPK
- Test Description: peptide SPOT array, c-Myc-tagged receptor at 1 uM or 100 nM, anti-c-Myc-Cy3
Assign classes using reported SPOT signal as a fraction of Bim BH3's signal on the same receptor and array values and the ranges low end (below 0.04), middle (0.04 to below 0.1), high end (0.1 or more), please.

Below, 2 binders whose answers are already recorded.
binder="TNISWRACDHLRCIACDFLVVSYDDY [C8orf37]" class="low end"
binder="VLELHPGAQRLHIGCDEVYYLGEGEA [HEXDC]" class=middle

Form: Item = TGSLCEIATTLSFEGDGFLWVKSGSV [CRB1] ; Class = ?
low end

Please indicate the class for ADLYEEAAENLHQLSDKLPAPGRAMV [MTBP] based on its SPOT signal as a fraction of Bim BH3's signal on the same receptor and array.
low end

Which of the defined bands does the recorded SPOT signal as a fraction of Bim BH3's signal on the same receptor and array of YNLKSPAVKRLMKEAAELKDPTDHYH [UBE2J1] sit within?
high end

Which band does PKKKMTLSEIDQWICDNFPYYREAGS fall in?
middle

Hi, small favor: classify VKVFGKAVQALSRISDEFWLDPSKKG [RAD9B] by its SPOT signal as a fraction of Bim BH3's signal on the same receptor and array when you get a moment.
high end

Each binder maps to one class by SPOT signal as a fraction of Bim BH3's signal on the same receptor and array. Which class for GVMTQEVGQLLQDMLDDVYQQYRSLT [HUWE1] ?
low end

For the record LCQLSCVSKLDRDVCGSLLQSRGMVI [FBXO30] , report the class its SPOT signal as a fraction of Bim BH3's signal on the same receptor and array corresponds to.
high end
